Molecular target: L-2,3-diaminopropanoate--citrate ligase (Staphylococcus aureus (strain NCTC 8325 / PS 47), UniProt Q2G1M9)
Sequence (Q2G1M9 whole entry): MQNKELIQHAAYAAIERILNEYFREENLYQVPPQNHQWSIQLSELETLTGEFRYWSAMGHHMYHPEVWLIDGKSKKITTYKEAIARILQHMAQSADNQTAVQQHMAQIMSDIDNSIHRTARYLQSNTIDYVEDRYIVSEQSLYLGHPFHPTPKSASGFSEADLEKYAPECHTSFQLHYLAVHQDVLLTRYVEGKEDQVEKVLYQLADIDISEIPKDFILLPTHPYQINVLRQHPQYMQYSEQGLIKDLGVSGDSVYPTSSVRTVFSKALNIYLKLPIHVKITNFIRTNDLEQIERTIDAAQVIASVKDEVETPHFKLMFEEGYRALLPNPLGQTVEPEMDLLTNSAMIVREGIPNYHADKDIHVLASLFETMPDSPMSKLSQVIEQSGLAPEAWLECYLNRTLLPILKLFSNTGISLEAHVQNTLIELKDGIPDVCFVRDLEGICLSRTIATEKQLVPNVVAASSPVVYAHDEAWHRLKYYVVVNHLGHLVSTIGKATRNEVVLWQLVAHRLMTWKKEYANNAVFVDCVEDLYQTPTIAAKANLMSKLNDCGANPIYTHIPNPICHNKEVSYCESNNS
Assay: Inhibition of Staphylococcus aureus SbnE incubated for 1 hr by malachite green staining based microplate reader analysis
Reported IC50 values are given for each entry in this list.
A number alone suffices; assume µM.

SMILES_RECORD	IC50, µM
CCC(=O)[C@@H](C)C[C@@H](C)C[C@@H](C)CCCC[C@@H](O)[C@@H](CC(C)C)[C@@H](O)c1cc(O)cc(O)c1	16.4
CC(C)C[C@H]([C@H](O)CCNCc1cccc([N+](=O)[O-])c1)[C@@H](O)c1cc(O)cc(O)c1	92.5
CC(C)C[C@H]([C@H](O)CCN)[C@@H](O)c1cc(O)cc(O)c1	1.81

For this compound ( CC(C)C[C@@H]([C@H](O)CCCC[C@@H](C)C[C@H](C)C[C@@H](C)CO)[C@@H](O)c1cc(O)cc(O)c1 ), measured IC50 is 10.5

For this compound ( CC(C)C[C@H]([C@H](O)C[C@H](O)C#C[C@@H](C)C[C@H](C)C[C@@H](C)COCc1ccccc1)[C@@H](O)c1cc(O)cc(O)c1 ), measured IC50 is 5.49

For this compound ( CC(C)C[C@H]([C@H](O)CCNCc1ccccc1)[C@@H](O)c1cc(O)cc(O)c1 ), measured IC50 is 3.45

====

target: L-2,3-diaminopropanoate--citrate ligase (Staphylococcus aureus (strain NCTC 8325 / PS 47)) (UniProt Q2G1M9); assay: Inhibition of Staphylococcus aureus SbnE at 50 uM incubated for 1 hr by malachite green staining based microplate reader analysis relative to control
QUANTITY_KIND: inhibition
Please answer using the number first and the unit second.

Solved cases below.
COMPOUND	inhibition
CC(C)C[C@@H]([C@H](O)C[C@H](O)CCCCCCCCO)[C@@H](O)c1cc(O)cc(O)c1	38.4%
CC(C)C[C@H]([C@H](O)C[C@H](O)C#CCCCCCCOCc1ccccc1)[C@@H](O)c1cc(O)cc(O)c1	81.9%
CC(C)C[C@H]([C@H](O)CCNc1ccccc1O)[C@@H](O)c1cc(O)cc(O)c1	4.87%

For this compound ( CC(C)C[C@H]([C@H](O)CCNc1ccccc1)[C@@H](O)c1cc(O)cc(O)c1 ), measured inhibition is 75.1%

For this compound ( CCC(O)[C@H](C)C[C@H](C)C[C@H](C)CC[C@@H](O)C[C@@H](O)[C@@H](CC(C)C)[C@@H](O)c1cc(O)cc(O)c1 (stereo partly drawn) ), measured inhibition is 58.7%

For this compound ( CCC(=O)[C@@H](C)C[C@@H](C)C[C@@H](C)CCCC[C@@H](O)[C@@H](CC(C)C)[C@@H](O)c1cc(O)cc(O)c1 ), measured inhibition is 81.5%

For this compound ( CC(C)C[C@@H]([C@H](O)C[C@H](O)C#C[C@@H](C)C[C@H](C)C[C@@H](C)COCc1ccccc1)[C@@H](O)c1cc(O)cc(O)c1 ), measured inhibition is 76.8%

For this compound ( CC(C)C[C@H]([C@H](O)CCNc1c(Cl)cccc1Cl)[C@@H](O)c1cc(O)cc(O)c1 ), measured inhibition is 26.8%
